- protocol.notes: Displacement of [3H]-flumazenil from benzodiazepine receptor in Sprague-Dawley rat brain cortical membranes incubated for 35 mins

smiles.entry: Nc1nnc(-c2ccccc2)n1Cc1ccc(F)cc1
quantity.unit: nM
IC50: 4.45
//
smiles.entry: Cc1cc(=O)n2nc(-c3ccccc3)n(Cc3ccc(F)cc3)c2n1
quantity.unit: nM
IC50: 1.59
//
smiles.entry: CN1C(=O)CN=C(c2ccccc2)c2cc(Cl)ccc21
quantity.unit: nM
IC50: 2.5
//
smiles.entry: Cc1cc(=O)n2nc(-c3ccccc3)n(Cc3ccccc3Cl)c2n1
quantity.unit: nM
IC50: 0.68
//
smiles.entry: Nc1nnc(-c2ccccc2)n1Cc1ccccc1
quantity.unit: nM
IC50: 0.87
//
smiles.entry: Cc1cc(=O)n2nc(-c3ccccc3)n(Cc3ccccc3)c2n1
quantity.unit: nM
IC50: 2.39
//
smiles.entry: Nc1nnc(-c2ccccc2)n1Cc1ccccc1Cl
quantity.unit: nM
IC50: 2.24
